Test system: U-2932
Test: growth inhibition by drug alone (1 - RLU/untreated control) (fraction); higher = stronger inhibition
Details: 10 nM; time (day): 4; 177Lu-lilotomab satetraxetan 0 ug/ml
Lab note: anything with growth inhibition by drug alone at or over -0.02 counts as True; the rest go in False.

Is growth inhibition by drug alone for O=P1(N(CCCl)CCCl)NCCCO1 (centres undefined) [Cyclophosphamide monohydrate] at or above -0.02? True

Would you say "CN(C)CCN(C)CCc1ccc(Cl)c(Cl)c1" shows growth inhibition by drug alone at minimum -0.02? True

Decide: growth inhibition by drug alone of CC1=C2C[C@H]3[C@@H](CC=C4C[C@@H](O)CC[C@@]43C)[C@@H]2CC[C@]12O[C@@H]1C[C@H](C)CN[C@H]1[C@H]2C [Cyclopamine] >= -0.02? True

Check if growth inhibition by drug alone >= -0.02 (inclusive). Item: N.N.[Cl][Pt][Cl] [Cisplatin] True

State whether the measured growth inhibition by drug alone reaches -0.02, counting equality as reaching it, for "Cn1cc(C2=C(c3cn(C4CCN(Cc5ccccn5)CC4)c4ccccc34)C(=O)NC2=O)c2ccccc21" False

Confirm if growth inhibition by drug alone reported for the molecule C[C@]12CCC(=O)C(O)=C1CC[C@@H]1[C@@H]2CC[C@]2(C)C(=O)CC[C@@H]12 [Formestane] is -0.02 or above. False

Item CC(=O)Nc1ccc(OC[C@](C)(O)C(=O)Nc2ccc([N+](=O)[O-])c(C(F)(F)F)c2)cc1 [Andarine (GTX-007)] with growth inhibition by drug alone of -0.02 or above? True

Entry Cc1cc2c(C(C)C)c(O)c(O)c(C=O)c2c(O)c1-c1c(C)cc2c(C(C)C)c(O)c(O)c(C=O)c2c1O [Gossypol] : is its growth inhibition by drug alone no less than -0.02? False

Does CC(O)(CS(=O)(=O)c1ccc(F)cc1)C(=O)Nc1ccc(C#N)c(C(F)(F)F)c1 (centres undefined) [Bicalutamide (Casodex)] have a reported growth inhibition by drug alone of at least -0.02? True
